compounds and their reported log10 of CC50 at 96 h
- EXPERIMENT NOTES: Cytotoxicity against human MT4 cells after 96 hrs by MTT assay
- Assay type: cell-based
- EXPERIMENTAL CONTEXT: MT4 cells
// do not treat as linear: log10 of CC50 at 96 h, unit µM

{"SMILES TEXT": "COc1ccc(-c2nc3cc(Cl)c(Cl)cc3[nH]2)cc1", "MEAS VALUE": 0.00}
{"SMILES TEXT": "COc1ccc(-c2nc3cc(C(F)(F)F)ccc3[nH]2)c([N+](=O)[O-])c1", "MEAS VALUE": 1.93}

Query :: Report log10 of CC50 at 96 h for `CC(=O)Nc1ccc(-c2nc3ccccc3[nH]2)cc1` please.
Result :: 2.00

Cited source for all entries: ChEMBL document CHEMBL1156237
